target: YES1 kinase (Homo sapiens); assay: YES1 kinase inhibition, ADP Glo assay (Promega); format: biochemical; settings: compound 100 nM; read-out: YES1 enzyme, % inhibition, 100 nM
Sequence (P07947 whole entry): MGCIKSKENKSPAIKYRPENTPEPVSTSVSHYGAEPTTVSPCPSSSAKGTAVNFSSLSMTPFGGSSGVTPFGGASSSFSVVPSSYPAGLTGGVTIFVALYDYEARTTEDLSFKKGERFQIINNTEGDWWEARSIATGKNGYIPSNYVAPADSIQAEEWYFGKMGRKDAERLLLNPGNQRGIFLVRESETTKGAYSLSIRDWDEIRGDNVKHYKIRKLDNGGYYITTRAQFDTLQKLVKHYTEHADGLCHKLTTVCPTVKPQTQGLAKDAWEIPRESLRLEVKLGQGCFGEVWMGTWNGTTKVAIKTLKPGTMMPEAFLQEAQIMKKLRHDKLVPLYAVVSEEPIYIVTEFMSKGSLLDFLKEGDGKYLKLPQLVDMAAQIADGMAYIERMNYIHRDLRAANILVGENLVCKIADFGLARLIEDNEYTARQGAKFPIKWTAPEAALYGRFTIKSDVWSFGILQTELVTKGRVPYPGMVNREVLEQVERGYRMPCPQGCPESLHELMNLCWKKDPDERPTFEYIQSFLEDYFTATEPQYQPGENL
Kindly state inhibition at 0.1 µM for each of the entries shown.
One number for each entry, in %.

Check out these entries, answers already filled in.
INSERT INTO measurements (structure_string, recorded_value) VALUES
  ('Nc1ncnn2c(N3CCC(N)CC3)cc(-c3ccc(Oc4ccccc4)cc3)c12', 87),
  ('COc1cc(-c2cc(N3CCC4(CCN(C)CC4)C3)n3ncnc(N)c23)ccc1NC(=O)OC(C)(C)C', 78),
  ('COc1cc(-c2cc(N3CCC4(CC3)CC(=O)N(C)C4)n3ncnc(N)c23)ccc1NC(=O)OC(C)(C)C', 74);

Now for a further molecule.
Task: What value of inhibition at 0.1 µM on YES1 kinase (Homo sapiens) does "COc1cc(-c2cc(N3CCC(CN)CC3)n3ncnc(N)c23)ccc1NC(=O)OC(C)(C)C" have?
Output: 80

---

Kindly state inhibition at 0.1 µM for each of the entries shown.
molecular target: YES1 kinase (Homo sapiens); assay: YES1 kinase inhibition, ADP Glo assay (Promega); format: biochemical; conditions: compound 100 nM; read-out: YES1 enzyme, % inhibition, 100 nM
Give bare numbers, in %.

Check out these entries, answers already filled in.
INSERT INTO assay_data (compound, readout_unit, recorded_value) VALUES
  ('COc1cc(-c2cc(-c3ccc(N(C)C)cc3)n3ncnc(N)c23)ccc1NC(=O)OC(C)(C)C', '%', 31),
  ('COc1cc(-c2cc(N3CCC(NC(C)=O)CC3)n3ncnc(N)c23)ccc1NC(=O)OC(C)(C)C', '%', 66),
  ('COc1cc(-c2cc(N3CCC4(CCCN4)CC3)n3ncnc(N)c23)ccc1NC(=O)OC(C)(C)C', '%', 87),
  ('CCN(CC)C1CCN(c2cc(-c3ccc(NC(=O)OC(C)(C)C)c(OC)c3)c3c(N)ncnn23)CC1', '%', 77),
  ('COc1cc(-c2cc(N3CCC(N)C(C)C3)n3ncnc(N)c23)ccc1NC(=O)OC(C)(C)C (centres unmarked)', '%', 96);

Lab note: each compound below needs its inhibition at 0.1 µM filled in.
1. COc1cc(-c2cc(N3CCC4(CC3)CNC4=O)n3ncnc(N)c23)ccc1NC(=O)OC(C)(C)C
2. COc1cc(-c2cc(-c3ccc(N(C)C)c(C)c3)n3ncnc(N)c23)ccc1NC(=O)OC(C)(C)C
3. COc1cc(-c2cc(N3C[C@H]4CN(C)C[C@H]4C3)n3ncnc(N)c23)ccc1NC(=O)OC(C)(C)C
4. COc1cc(-c2cc(N3CCN(C4CC4)CC3)n3ncnc(N)c23)ccc1NC(=O)OC(C)(C)C
5. COc1cc(-c2cc(N3CC4CC(C3)C4N)n3ncnc(N)c23)ccc1NC(=O)OC(C)(C)C (centres unmarked)
6. COc1cc(-c2cc(N3CCC[C@@H](CN(C)C)C3)n3ncnc(N)c23)ccc1NC(=O)OC(C)(C)C

Output:
1. 76
2. 49
3. 74
4. 59
5. 48
6. 43

---

biological target: YES1 kinase (Homo sapiens); assay: YES1 kinase inhibition, ADP Glo assay (Promega); assay type: biochemical; conditions: compound 1 nM; read-out: YES1 enzyme, % inhibition, 1 nM
Cut-off 20% on inhibition at 0.001 µM, inclusive. At or above means 1.0; below means 0.0.

These recorded examples may help you get a feel for the data.
INSERT INTO assay_data (compound, group_label) VALUES
  ('COc1cc(-c2cc(N[C@H]3CC[C@H](N(C)C)C3)n3ncnc(N)c23)ccc1NC(=O)OC(C)(C)C', 1.0),
  ('COc1cc(-c2cc(N3CCC(C(=O)O)CC3)n3ncnc(N)c23)ccc1NC(=O)OC(C)(C)C', 0.0);

Pending compound:
Task: Dear colleague, could you confirm whether "COc1cc(-c2cc(N3CCC(CC(=O)O)CC3)n3ncnc(N)c23)ccc1NC(=O)OC(C)(C)C" has inhibition at 0.001 µM at or above 20%?
Output: 0.0
